TARGET SYSTEM: PfCRT^Dd2 (Plasmodium falciparum, UniProt Q9N623, A220S/I356T/K76T/M74I/N326S/N75E/Q271E/R371I)
Sequence (Q9N623 whole entry A220S/I356T/K76T/M74I/N326S/N75E/Q271E/R371I): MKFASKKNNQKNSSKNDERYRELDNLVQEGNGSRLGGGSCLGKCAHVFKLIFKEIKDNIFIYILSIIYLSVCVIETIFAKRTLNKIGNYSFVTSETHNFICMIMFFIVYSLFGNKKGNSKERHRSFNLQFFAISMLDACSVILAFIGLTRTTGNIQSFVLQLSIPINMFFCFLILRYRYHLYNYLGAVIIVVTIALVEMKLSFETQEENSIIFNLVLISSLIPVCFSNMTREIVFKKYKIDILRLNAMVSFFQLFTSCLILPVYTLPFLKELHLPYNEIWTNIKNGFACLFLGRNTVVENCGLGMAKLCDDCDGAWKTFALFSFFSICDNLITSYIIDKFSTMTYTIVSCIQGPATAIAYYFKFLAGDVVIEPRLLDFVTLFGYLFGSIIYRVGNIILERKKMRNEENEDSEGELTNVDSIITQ
ASSAY EXPLANATION: cell-based
Type: cell-based
EXPERIMENTAL PARAMETERS: trans-stimulation, footnote b: due to solubility the highest intracellular concentration tested was 30 mM; normalised to the oocyte type control = 100
Protocol: Unless specified otherwise, the transport assays were conducted over 1.5 h at 27.5 °C and the reaction buffer was ND96 (96 mM NaCl, 2 mM KCl, 1 mM MgCl2, 1.8 mM CaCl2, 10 mM MES and 10 mM Tris-base) at pH 5.5. The intracellular concentrations were calculated using previous estimates of the volume of stage V–VI oocytes (~400 nL[60]). […] The oocytes were injected with VF-6 suspended in 25 nL ND96 buffer adjusted to pH 5.0, 5.5, 6.0 or 7.0, which corresponded to the injection of 2.5–250 fmol of H^+. […]
READOUT LABEL: Trans-stimulation data: PfCRT-mediated [3H]CQ transport (b)
Give the value, in units of b, as a plain number.

Query (sequence): VHLTPEEKSAVT [VT-12] ; field requested: Trans-stimulation data: PfCRT-mediated [3H]CQ transport
98

Name the reported Trans-stimulation data: PfCRT-mediated [3H]CQ transport value associated with the sequence LTPEEKSAVTALWGKVNVDEVGGEA [LA-25, additional peptide, 25 residues]
97

Record request: Trans-stimulation data: PfCRT-mediated [3H]CQ transport value, item NAVAHVDDMPNALSALSDLH [NH-20, additional peptide, 20 residues]
97

Entry under review: GTFATLSELHCDK [GK-13] . Reported Trans-stimulation data: PfCRT-mediated [3H]CQ transport?
95

Form field: reported Trans-stimulation data: PfCRT-mediated [3H]CQ transport of LTPEEKSAVTAL [LL-12]
98

What does the record list as Trans-stimulation data: PfCRT-mediated [3H]CQ transport for SFGDLSTPDAVMG [SG-13] ?
98

Value lookup for Trans-stimulation data: PfCRT-mediated [3H]CQ transport; key = FESFGDLSTPDAVMGNPKVK [FK-20, additional peptide, 20 residues]
98

# Trans-stimulation data: PfCRT-mediated [3H]CQ transport lookup, item DDEGDDDPVPLPNVNA [DA-16, additional peptide, 16 residues]
100

Give the measured Trans-stimulation data: PfCRT-mediated [3H]CQ transport of VEPSDTIENVK [VK-11] .
96

====

TARGET SYSTEM: PfCRT^Dd2 (Plasmodium falciparum, UniProt Q9N623, A220S/I356T/K76T/M74I/N326S/N75E/Q271E/R371I)
ASSAY EXPLANATION: [3H]CQ uptake into Xenopus oocytes, cis-inhibition by unlabelled solute
Format: cell-based
EXPERIMENTAL PARAMETERS: read-out: PfCRT-mediated [3H]CQ transport, cis-inhibition (% PfCRTDd2 control)
READOUT LABEL: inhibition at 2000 µM (%)
Numeric answer only, unit % assumed.

Entry N[C@@H](Cc1ccc(O)cc1)C(=O)O [L-tyrosine] : reported inhibition at 2000 µM = ?
97

Param item = C[C@@H](O)[C@H](N)C(=O)O [L-threonine] ; retrieve measured inhibition at 2000 µM.
92

Given N=C(N)NCCC[C@H](N)C(=O)O [L-arginine] , state its recorded inhibition at 2000 µM.
95

Name the reported inhibition at 2000 µM value associated with the compound NC(=O)CC[C@H](N)C(=O)O [L-glutamine]
95

Field request: inhibition at 2000 µM | item: CC(C)C[C@H](N)C(=O)O [L-leucine]
98

Quick check: inhibition at 2000 µM of N[C@@H](Cc1c[nH]c2ccccc12)C(=O)O [L-tryptophan] ?
95

// returns reported inhibition at 2000 µM for input NCCCC[C@H](N)C(=O)O [L-lysine]
95

Endpoint output: inhibition at 2000 µM of CC(C)[C@H](N)C(=O)O [L-valine] . Value?
93

Name the reported inhibition at 2000 µM value associated with the compound N[C@@H](CCC(=O)O)C(=O)O [L-glutamic acid]
94

I have this compound here, CC[C@H](C)[C@H](N)C(=O)O [L-isoleucine] , and I need its recorded inhibition at 2000 µM.
96

Reported inhibition at 2000 µM, compound CSCC[C@H](N)C(=O)O [L-methionine] : ____
95

Quick check: inhibition at 2000 µM of N[C@@H](CO)C(=O)O [L-serine] ?
94

Looking for the measured inhibition at 2000 µM of N[C@@H](CS)C(=O)O [L-cysteine] , can you help?
95

====

TARGET SYSTEM: PfCRT^Ecu1110 (Plasmodium falciparum, UniProt Q9N623, A220S/I356L/K76T/N326D)
Sequence (Q9N623 whole entry A220S/I356L/K76T/N326D): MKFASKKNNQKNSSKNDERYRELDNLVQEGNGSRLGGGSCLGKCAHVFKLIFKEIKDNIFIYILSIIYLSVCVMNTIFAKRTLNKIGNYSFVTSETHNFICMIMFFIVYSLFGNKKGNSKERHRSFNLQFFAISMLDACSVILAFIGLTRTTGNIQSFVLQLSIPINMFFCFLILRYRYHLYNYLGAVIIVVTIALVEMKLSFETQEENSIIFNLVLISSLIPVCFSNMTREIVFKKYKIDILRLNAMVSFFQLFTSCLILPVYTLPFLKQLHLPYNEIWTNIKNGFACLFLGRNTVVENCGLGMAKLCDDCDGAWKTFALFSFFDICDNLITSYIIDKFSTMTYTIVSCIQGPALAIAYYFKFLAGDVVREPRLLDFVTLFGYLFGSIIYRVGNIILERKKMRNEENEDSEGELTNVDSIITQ
ASSAY EXPLANATION: cell-based
Type: cell-based
EXPERIMENTAL PARAMETERS: trans-stimulation, footnote b: due to solubility the highest intracellular concentration tested was 30 mM; normalised to the oocyte type control = 100
READOUT LABEL: Trans-stimulation data: PfCRT-mediated [3H]CQ transport (b)
Reply numerically in b, unit not repeated.

Can you share its Trans-stimulation data: PfCRT-mediated [3H]CQ transport? I mean this sequence: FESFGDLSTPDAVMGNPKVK [FK-20, additional peptide, 20 residues]
97

What value of Trans-stimulation data: PfCRT-mediated [3H]CQ transport has been reported for the following sequence? GTFATLSELHCDK [GK-13]
97

Tell me the measured Trans-stimulation data: PfCRT-mediated [3H]CQ transport of VHLTPEEKSAVT [VT-12] , please.
99

Trans-stimulation data: PfCRT-mediated [3H]CQ transport lookup needed for VEPSDTIENVK [VK-11] , thanks.
127

Entry DDEGDDDPVPLPNVNA [DA-16, additional peptide, 16 residues] : reported Trans-stimulation data: PfCRT-mediated [3H]CQ transport = ?
98

Given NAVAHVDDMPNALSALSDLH [NH-20, additional peptide, 20 residues] , state its recorded Trans-stimulation data: PfCRT-mediated [3H]CQ transport.
97

Any idea what Trans-stimulation data: PfCRT-mediated [3H]CQ transport was measured for LTPEEKSAVTAL [LL-12] ?
98

Bench note: what Trans-stimulation data: PfCRT-mediated [3H]CQ transport did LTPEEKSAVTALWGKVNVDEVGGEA [LA-25, additional peptide, 25 residues] show?
98

Given the entry SFGDLSTPDAVMG [SG-13] , report its measured Trans-stimulation data: PfCRT-mediated [3H]CQ transport.
99

====

TARGET SYSTEM: UniProtKB Q8IBZ9
Sequence (Q8IBZ9 59-398): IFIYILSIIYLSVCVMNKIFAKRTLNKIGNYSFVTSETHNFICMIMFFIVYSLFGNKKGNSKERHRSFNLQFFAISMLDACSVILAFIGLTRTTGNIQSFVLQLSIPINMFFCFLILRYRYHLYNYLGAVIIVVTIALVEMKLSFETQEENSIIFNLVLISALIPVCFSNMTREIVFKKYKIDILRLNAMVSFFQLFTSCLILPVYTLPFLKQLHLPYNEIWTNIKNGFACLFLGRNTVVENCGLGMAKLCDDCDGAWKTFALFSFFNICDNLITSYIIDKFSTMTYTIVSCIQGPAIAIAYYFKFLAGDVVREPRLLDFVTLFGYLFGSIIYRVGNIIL
ASSAY EXPLANATION: cell-based
EXPERIMENTAL PARAMETERS: Cis-inhibition IC50 of [3H]VF-6 transport, PfCRT3D7, drug on same side as [3H]VF-6; mean ± SEM, n = 5; SEM
READOUT LABEL: IC50
Number first, unit second.

Give IC50 (UniProtKB Q8IBZ9) of the following molecule: CCN(CC)CCCC(C)Nc1ccnc2cc(Cl)ccc12 (stereo not shown) [CQ, chloroquine, reference compound]
110 µM

====

What activity at 5000 µM was measured for each of the following?
TARGET SYSTEM: PfNT1 (Plasmodium falciparum, UniProt Q8IDM6)
Construct: expressed in transfected cells; host or cells: Xenopus laevis oocytes (stage V-VI), cRNA-injected
Sequence (Q8IDM6 whole entry): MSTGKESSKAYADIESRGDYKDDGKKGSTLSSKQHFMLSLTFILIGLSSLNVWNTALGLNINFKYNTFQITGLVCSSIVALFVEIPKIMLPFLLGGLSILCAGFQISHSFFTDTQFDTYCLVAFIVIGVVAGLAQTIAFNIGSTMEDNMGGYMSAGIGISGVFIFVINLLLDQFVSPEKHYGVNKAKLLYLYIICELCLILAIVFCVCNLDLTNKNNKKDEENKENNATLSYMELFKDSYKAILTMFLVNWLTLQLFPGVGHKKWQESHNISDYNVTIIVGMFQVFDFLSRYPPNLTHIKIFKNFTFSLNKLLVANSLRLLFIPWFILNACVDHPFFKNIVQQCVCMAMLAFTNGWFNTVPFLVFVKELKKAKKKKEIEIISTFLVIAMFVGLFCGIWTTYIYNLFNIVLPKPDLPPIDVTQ
ASSAY EXPLANATION: cell-based
Format: cell-based
EXPERIMENTAL PARAMETERS: PfNT1 oocytes; [test solute]i = 5 mM; total [3H]CQ transport, normalised to the oocyte type control; read-out: Uptake of [3H]CQ (% PfNT1 control), trans-stimulation
Answer with a number only, understood to be in %.

PfNT1 (Plasmodium falciparum, UniProt Q8IDM6) / activity at 5000 µM / N[C@@H](CS)C(=O)O [L-cysteine] : value?
98

Return activity at 5000 µM measured with PfNT1 (Plasmodium falciparum, UniProt Q8IDM6) given this compound: CC(C)C[C@H](N)C(=O)O [L-leucine]
100

GET /values?readout=activity at 5000 µM&system=PfNT1 (Plasmodium falciparum, UniProt Q8IDM6)&item= CC(C)[C@H](N)C(=O)O [L-valine]
99

Give recorded activity at 5000 µM with PfNT1 (Plasmodium falciparum, UniProt Q8IDM6) for the following compound: N[C@@H](CO)C(=O)O [L-serine]
98

Missing value: activity at 5000 µM, PfNT1 (Plasmodium falciparum, UniProt Q8IDM6), entry CC[C@H](C)[C@H](N)C(=O)O [L-isoleucine] . Fill in?
98

Param readout= activity at 5000 µM; system= PfNT1 (Plasmodium falciparum, UniProt Q8IDM6); entry= N=C(N)NCCC[C@H](N)C(=O)O [L-arginine] ; returns value.
98

Lookup: activity at 5000 µM / PfNT1 (Plasmodium falciparum, UniProt Q8IDM6) / N[C@@H](Cc1c[nH]cn1)C(=O)O [L-histidine]
99

Observed activity at 5000 µM on PfNT1 (Plasmodium falciparum, UniProt Q8IDM6) for C[C@H](N)C(=O)O [L-alanine] , please.
99

Param readout = activity at 5000 µM; param system = PfNT1 (Plasmodium falciparum, UniProt Q8IDM6); param query = N[C@@H](Cc1ccccc1)C(=O)O [L-phenylalanine] ; response: value
99

For the record N[C@@H](Cc1c[nH]c2ccccc12)C(=O)O [L-tryptophan] , what value of activity at 5000 µM is listed for PfNT1 (Plasmodium falciparum, UniProt Q8IDM6)?
101

Find the measured activity at 5000 µM: item C[C@@H](O)[C@H](N)C(=O)O [L-threonine] , target or system PfNT1 (Plasmodium falciparum, UniProt Q8IDM6).
99

GET /values?readout=activity at 5000 µM&system=PfNT1 (Plasmodium falciparum, UniProt Q8IDM6)&item= NCCCC[C@H](N)C(=O)O [L-lysine]
100

Find the measured activity at 5000 µM: item NC(=O)CC[C@H](N)C(=O)O [L-glutamine] , target or system PfNT1 (Plasmodium falciparum, UniProt Q8IDM6).
99
